assay: Plasma toxicokinetics after single gavage administration in rats; type: in vivo, Harlan Sprague Dawley rats; conditions: female, Hsd:Sprague Dawley SD, rat, plasma, po, 110 mg/kg
metric-name: Tmax (min)

In [3]: df
Out[3]:
                            chemical_smiles  reported_measurement
0  Oc1ccc(C(c2ccc(O)cc2)(C(F)(F)F)C(F)(F)F)cc1                  39.5

---

assay: Plasma toxicokinetics after single gavage administration in rats; format: in vivo, Harlan Sprague Dawley rats; settings: female, Harlan Sprague Dawley (Hsd:Sprague Dawley SD), rat, plasma, po, 34 mg/kg
metric-name: Cmax (nM)

>>> print(df.to_string())
                            chemical_smiles  metric_name  reported_measurement
0  Oc1ccc(C(c2ccc(O)cc2)(C(F)(F)F)C(F)(F)F)cc1         Cmax                   142

---

experiment: Plasma toxicokinetics after single gavage administration in rats; format: in vivo, Harlan Sprague Dawley rats; details: male, Hsd:Sprague Dawley SD, rat, plasma, po, 340 mg/kg
metric-name: AUC(0-inf) (ng·h/mL)

In [3]: df
Out[3]:
                            chemical_smiles  reported_measurement
0  Oc1ccc(C(c2ccc(O)cc2)(C(F)(F)F)C(F)(F)F)cc1                  4830

---

assay: Plasma toxicokinetics after single gavage administration in rats; type: in vivo, Harlan Sprague Dawley rats; settings: male, Hsd:Sprague Dawley SD, rat, plasma, po, 340 mg/kg
metric-name: Cmax

In [3]: df
Out[3]:
                            chemical_smiles  metric_name  reported_measurement
0  Oc1ccc(C(c2ccc(O)cc2)(C(F)(F)F)C(F)(F)F)cc1         Cmax             552 ng/mL

---

assay: Gavage toxicokinetics, summary statements over rats and mice; type: in vivo; details: Hsd:Sprague Dawley SD (rats); B6C3F1/N (mice), rat, mouse, plasma, po
metric-name: half-life

>>> print(df.to_string())
                                   compound  reported_measurement
0  Oc1ccc(C(c2ccc(O)cc2)(C(F)(F)F)C(F)(F)F)cc1 [BPAF, Bisphenol AF]              ≤ 4.22 h

---

assay: Plasma toxicokinetics after single gavage administration in rats; assay type: in vivo, Harlan Sprague Dawley rats; conditions: both, Hsd:Sprague Dawley SD, rat, plasma, po, 34 mg/kg
metric-name: Tmax

                            chemical_smiles  reported_measurement
0  Oc1ccc(C(c2ccc(O)cc2)(C(F)(F)F)C(F)(F)F)cc1        46 to 48.7 min

---

assay: Plasma toxicokinetics after single gavage administration in mice; type: in vivo, B6C3F1/N mice; conditions: male, B6C3F1/N, mouse, plasma, po, 34 mg/kg, Bioavailability, free BPAF; Male Mice; 34 mg/kg gavage; AUC/Dose (oral) ÷ AUC/Dose (IV) x 100
metric-name: bioavailability

>>> print(df.to_string())
                                   compound      metric_name  reported_measurement
0  Oc1ccc(C(c2ccc(O)cc2)(C(F)(F)F)C(F)(F)F)cc1 [BPAF, Bisphenol AF]  bioavailability                   ~6%

Recorded values, source paper PMC7178755.
